# Test system: Staphylococcus sp.
# experimentNotes: In vitro antibacterial evaluation: minimum inhibitory concentration (MIC), broth dilution method
# Format: cell-based
# testContext: strain GC 4538
endpointName: MIC Coagulase Negative Staphylococcus (GC 4538) (µg/mL)
Give just the number in µg/mL; leave the unit off.

molecule	valueMeasured
CCCCCC(=O)OCC1OC(Oc2ccc(CC3NC(=O)C(C(C)c4ccccc4)NC(=O)CNC(=O)C(CO)NC(=O)C(C(O)C4CNC(=N)N4C4OC(CO)C(O)C(O)C4O)NC(=O)C(C(O)C4CNC(=N)N4)NC3=O)cc2)C(O)C(O)C1OC1OC(CO)C(O)C(O)C1O (stereo not drawn) [Example 95a]	4

Quick check: MIC Coagulase Negative Staphylococcus (GC 4538) of CC(c1ccccc1)C1NC(=O)CNC(=O)C(CO)NC(=O)C(C(O)C2CNC(=N)N2C2OC(CO)C(O)C(O)C2O)NC(=O)C(C(O)C2CNC(=N)N2)NC(=O)C(Cc2ccc(OC3OC(CO)C(OC4OC(COC(=O)Cc5ccccc5)C(O)C(O)C4O)C(O)C3O)cc2)NC1=O (stereo not drawn) [Example 98c] ?
1
